Assay details: qHTS of small molecules that selectively kill Giardia lamblia: Hit Validation in HepG2 cytotox;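 further: compound exposure lasted overnight at 37 deg C; nearly all actives have a fitted effect of over 55% in size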
Measurement context: cell viability; HepG2 cytotoxicity; series mostly up to 38.3 µM
The whole screen tested about 1,300 compounds, of which about 150 (12%) were called active. Not shown: some 30% with an inconclusive outcome. The call rests on the fitted dose curve; in most records, active means well fitted cell-killing curve with a large enough effect; inconclusive means small, poorly fitted or top-dose-only effect, or effect the other way; inactive means flat fitted curve, though single readings scatter. This is one part of a sample in which actives are shown more often than they occur.
Labels: TRUE = active, FALSE = inactive

>>> df
                                    molecule  label_class
 0       CCOC(=O)N/N=C\c1ccc([N+](=O)[O-])s1        FALSE
 1  COc1cccc(NC(=O)COc2cccnc2[N+](=O)[O-])c1        FALSE
 2  Nc1nc(F)nc2c1ncn2[C@@H]1O[C@H](CO)[C@@H](O)[C@@H]1O        FALSE
 3      N=NC(=O)c1ccccc1Nc1c(O)[nH]c2ccccc12         TRUE
 4  CC(=O)N1CCN(c2ccc(S(C)(=O)=O)cc2[N+](=O)[O-])CC1        FALSE
 5  O=[N+]([O-])c1ccc(/C=N/Nc2nc(N3CCCCC3)nc(N3CCCCC3)n2)o1        FALSE
 6  [O-][n+]1c2ccccc2c2n1CCCN=C2c1ccc(Cl)cc1        FALSE
 7  O=C(N/N=C\c1ccc([N+](=O)[O-])s1)c1cncc(Br)c1         TRUE
 8               Cc1cc(=S)nc(-c2ccccn2)[nH]1        FALSE
 9  Cc1ccc(N/C(C(Cl)=C(Cl)Cl)=C(/Cl)[N+](=O)[O-])c(C)c1        FALSE
10  O=C(COc1cccnc1[N+](=O)[O-])Nc1cccc(S(=O)(=O)N2CCCCC2)c1        FALSE
11  Cc1cc(C(=O)COc2cccnc2[N+](=O)[O-])c(C)n1Cc1ccco1        FALSE
12  CCC(=O)N1CCN(c2ccc(NC(=O)c3ccc([N+](=O)[O-])o3)cc2Cl)CC1         TRUE
13  O=C(N/N=C/c1ccc([N+](=O)[O-])s1)C(O)c1ccccc1 (configuration not stated)         TRUE
14  CN(C)C(=O)c1cc([N+](=O)[O-])cc([N+](=O)[O-])c1N(C)C        FALSE
15  Cc1c(Cl)cccc1N=c1c([N+](=O)[O-])nn(-c2ccccc2)n1O        FALSE
16  Cc1ccc(C2=NCCn3c2c2ccc([N+](=O)[O-])cc2[n+]3[O-])cc1        FALSE
17     O=C(NCCO)c1ccc2c3n(nc2c1)-c1ccccc1CO3         TRUE
18        COC(=O)N/N=C/c1ccc([N+](=O)[O-])s1        FALSE
19  O=C(CCCn1cnc([N+](=O)[O-])n1)Nc1cccc(Cl)c1Cl        FALSE
20  O=C(Nc1nc2c(Cl)cccc2s1)c1ccc([N+](=O)[O-])o1        FALSE
21  CCC(C)Nc1ccc(NC(C)CC)cc1 (configuration not stated)         TRUE
22  O=[N+]([O-])c1nn(-c2ccc3c(c2)OCCO3)n(O)c1=NCCCO        FALSE
23  O=C(NC(=S)Nc1ccc(CN2CCOCC2)cc1)c1ccc([N+](=O)[O-])cc1Cl        FALSE
24  Cc1nc2ccccc2n1/N=C/c1ccc([N+](=O)[O-])s1         TRUE
25  O=[N+]([O-])c1ccc(/C=N/n2c(CO)nc3ccccc32)s1        FALSE
26  Cc1cc(C(=O)COc2cccnc2[N+](=O)[O-])c(C)n1Cc1cccs1        FALSE
27  CC(NC(=O)COc1cccnc1[N+](=O)[O-])c1ccc(F)cc1 (configuration not stated)        FALSE
28  Cc1ccc([C@@H]2CC=C(C(=O)O)[C@H](c3ccc(Cl)cc3)N2S(=O)(=O)c2ccc(C)cc2)cc1        FALSE
29  COc1ccc2c3n([n+]([O-])c2c1)CCN=C3c1cc(Cl)c(N)c(Cl)c1        FALSE
30  O=[N+]([O-])c1nn(-c2ccc3c(c2)OCCO3)n(O)c1=NCc1ccccc1Cl        FALSE
31  COc1ccc(-n2nc([N+](=O)[O-])c(=NCCc3cccc(C)c3)n2O)cc1        FALSE
32  Cc1ccc(S(=O)(=O)N2CCN(C(=O)COc3ccc(C)nc3[N+](=O)[O-])CC2)c(C)c1        FALSE
33  COc1ccc(NC(C)C(=O)N/N=C/c2ccc([N+](=O)[O-])s2)cc1 (configuration not stated)        FALSE
34  COc1ccc(-n2nc([N+](=O)[O-])c(=NCc3cccnc3)n2O)cc1        FALSE
35  Cc1ccccc1C(=O)N/N=C/c1ccc([N+](=O)[O-])s1         TRUE
36  O=[N+]([O-])c1cc(S(=O)(=O)Nc2cccc(Cl)c2)ccc1N/N=C/c1ccc(N2CCOCC2)cc1        FALSE
37  O=C(Nc1cccc(S(=O)(=O)N2CCCCC2)c1)c1ccc([N+](=O)[O-])o1         TRUE
38  O=[N+]([O-])c1ccc(/C=N/Nc2ncccc2[N+](=O)[O-])s1        FALSE
39  CC(=O)N1CCN(c2ccc(NC(=O)c3ccc([N+](=O)[O-])o3)cc2Cl)CC1         TRUE
40  Cc1nc2cc(NC(=O)c3ccc([N+](=O)[O-])s3)ccc2s1        FALSE
41  Cc1ccc(CN=c2c([N+](=O)[O-])nn(-c3ccc(Cl)cc3)n2O)cc1        FALSE

----------
Assay details: qHTS of small molecules that selectively kill Giardia lamblia: Hit Validation in HepG2 cytotox;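 further: compound exposure lasted overnight at 37 deg C; nearly all actives have a fitted effect of over 55% in size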
Measurement context: cell viability; HepG2 cytotoxicity; series mostly up to 38.3 µM
Hit rate of the full screen: of about 1,300 compounds, about 150 (12%) were called active. Inconclusive results (about 30%) are left out. Many of the other results were omitted from the sample, so actives are more common in it than they were.
Recorded endpoint: outcome

In [3]: df
Out[3]:
                           smiles_structure  assay_value
0         O=c1[nH]cnc2ccc([N+](=O)[O-])cc12     inactive
1  O=[N+]([O-])c1nn(-c2ccccc2)[n+]([O-])c1N1CCN(c2ccccc2F)CC1     inactive
2  Cc1cc(Nc2ccccc2)c2c([N+](=O)[O-])cc(C)c(C)c2n1     inactive
3  COc1ccc(C(=O)NC2CCN(S(=O)(=O)c3ccc(F)cc3)CC2)cc1     inactive
4  COc1ccccc1Nc1cc(C)nc2c(C)ccc([N+](=O)[O-])c12     inactive

----------
Assay details: qHTS of small molecules that selectively kill Giardia lamblia: Hit Validation in HepG2 cytotox;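 further: compound exposure lasted overnight at 37 deg C; nearly all actives have a fitted effect of over 55% in size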
Measurement context: cell viability; HepG2 cytotoxicity; series mostly up to 38.3 µM
Hit rate of the full screen: of about 1,300 compounds, about 150 (12%) were called active. Inconclusive results (about 30%) are left out. Calls come from the whole dose curve; as a rule, active = well fitted cell-killing curve with a large enough effect; inconclusive = small, poorly fitted or top-dose-only effect, or effect the other way; inactive = flat fitted curve, though single readings scatter. This excerpt belongs to a sample that is enriched for actives.
Labels: yes (1) for active, no (0) for inactive

                           smiles_structure  label_class
0        O=C(O)c1cc2ccccc2c(N=Nc2cccnc2)c1O       no (0)
1  Cc1ccc(-n2c(C)cc(C(=O)COc3cccnc3[N+](=O)[O-])c2C)cc1       no (0)
2  COc1ccc(-n2nc([N+](=O)[O-])c(=NCCc3ccc(OC)c(OC)c3)n2O)cc1       no (0)
3  O=[N+]([O-])c1ccccc1S(=O)(=O)Oc1ccccc1/C=N/n1cnnc1       no (0)
4  CCOc1ccc2nc(NC(=O)c3c([N+](=O)[O-])cnn3CC)sc2c1       no (0)
5             O=C1C(c2ccncc2)=C(O)c2ccccc21      yes (1)
6  O=c1c(-c2cccc([N+](=O)[O-])c2)[n+]([O-])c2ccccc2n1O       no (0)
7  O=C(CNC(=O)c1ccccc1F)N/N=C/c1cc(Br)ccc1OCc1ccccc1       no (0)
8  COc1ccc2oc(=Nc3ccccc3)c(-c3nc4ccccc4[nH]3)cc2c1      yes (1)
9        Oc1cccc(-c2nnc(-c3cccc(O)c3)nn2)c1      yes (1)

----------
Assay details: qHTS of small molecules that selectively kill Giardia lamblia: Hit Validation in HepG2 cytotox;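 further: compound exposure lasted overnight at 37 deg C; nearly all actives have a fitted effect of over 55% in size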
Measurement context: cell viability; HepG2 cytotoxicity; series mostly up to 38.3 µM
Protocol: Giardia lamblia is a human pathogen afflicting impoverished nations, and the most common cause of outbreaks of diarrhea in the United States. Giardia has been classified by the CDC as a category B bioterrorism organism. […] 4 uL of HepG2 cells ae dispensed into white 1536-well plates. […] 2 uL of ATPLite is added and the plates are incubated for 15 min at room temperature before they are read on the ViewLux for luminiescence.
The campaign covered roughly 1,300 compounds. About 150 (12%) were called active. About 30% were inconclusive and are not listed. The call rests on the fitted dose curve; in most records, active means well fitted cell-killing curve with a large enough effect; inconclusive means small, poorly fitted or top-dose-only effect, or effect the other way; inactive means flat fitted curve, though single readings scatter. The entries come from a sample that favours actives as a whole.
Labels: yes (active), no (inactive)

In [3]: df
Out[3]:
                                    compound  label_class
 0       COC(=O)Nc1nc2ccc(Sc3ccccc3)cc2[nH]1           no
 1  COc1cc2c(c3oc(-c4ccccc4)cc(=O)c13)C=CC(C)(C)O2           no
 2  O=[N+]([O-])c1cccc2nc3ccccc3c(NCCCn3ccnc3[N+](=O)[O-])c12          yes
 3  Cc1cccc(CCN=c2c([N+](=O)[O-])nn(-c3ccccc3)n2O)c1           no
 4      O=C(O)C1CCN(c2ccccc2[N+](=O)[O-])CC1           no
 5  O=C(Nc1ccc(N2CCN(C(=O)c3ccc(Cl)cc3)CC2)cc1)c1ccc([N+](=O)[O-])o1          yes
 6  O=C(Nc1ccc(N2CCCCC2)cc1)c1ccc([N+](=O)[O-])o1          yes
 7  Cc1ccc(S(=O)(=O)CC(=O)Nc2ncc([N+](=O)[O-])s2)cc1           no
 8   CN(C)CCCN=c1cc(-c2ccccc2)oc2ccc(Cl)cc12           no
 9      COc1cc(SC)ccc1C(=O)Nc1nc2ccccc2[nH]1          yes
10  CC(C)C(=O)N1CCN(c2ccc(NC(=O)c3ccc([N+](=O)[O-])o3)cc2)CC1          yes
11  CCOC(=O)Cc1csc(NC(=S)NC(=O)c2ccc(C)cc2)n1          yes
12  O=C(NNC(=O)c1cc(-c2ccncc2)nc2ccccc12)c1ccccc1O           no
13  CCOC(=O)c1nc(C(=O)NCc2ccc(C)cc2)nc2ccccc12           no
14  CC1(C)CC(N=c2cc(-c3ccccc3)oc3ccc(Cl)cc23)CC(C)(C)N1          yes
15  O=[N+]([O-])c1ccc(CN2CCN(c3ccc(Cl)cc3)CC2)o1           no
16  Clc1ccc2oc(-c3ccccc3)cc(=NCCCN3CCOCC3)c2c1           no
17  O=C(Nc1ncc([N+](=O)[O-])s1)c1cccc([N+](=O)[O-])c1          yes
18   Cc1ccc(CNC(=O)c2ccc([N+](=O)[O-])o2)cc1           no
19  CC12CCC(C(=O)Nc3ncc([N+](=O)[O-])s3)(OC1=O)C2(C)C (configuration not stated)           no
20  O=C(Nc1ccc(N2CCN(C(=O)c3ccccc3)CC2)cc1)c1ccc([N+](=O)[O-])o1          yes
21      CC(=O)c1sc(NC(=O)c2ccc(C)c(C)c2)nc1C           no
22  CCOC(=O)C1=C(C)N=c2s/c(=C/c3cccc([N+](=O)[O-])c3O)c(=O)n2C1c1cc(OC)c(OC)c(OC)c1 (configuration not stated)           no
23        CCOC(=O)Cc1csc(SCC(=O)NC2CCCCC2)n1           no
24        CCn1cc(-c2cc(C(=O)O)c3ccccc3n2)cn1          yes
25  O=C(COC(=O)c1ccccc1)Nc1ncc([N+](=O)[O-])s1           no
26  O=[N+]([O-])c1cc(C(F)(F)F)ccc1Oc1cccnc1[N+](=O)[O-]           no
27  O=C(Nc1cccc2ccccc12)C12CC3CC(C1)CC(n1cnc([N+](=O)[O-])n1)(C3)C2           no
28  O=C(Nc1ccc(N2CCN(Cc3ccccc3F)CC2)cc1)c1ccc([N+](=O)[O-])o1          yes
29          COC(=O)Nc1nc2ccc(SC(C)C)cc2[nH]1           no
30   Cc1onc(NC(=O)c2ccc([N+](=O)[O-])o2)c1Br           no
31  CCN(CC(=O)NCc1cccs1)C(=O)c1ccc([N+](=O)[O-])o1           no
32  CC1CCc2c(sc(NC(=O)CCCn3cnc([N+](=O)[O-])n3)c2C(N)=O)C1 (configuration not stated)           no
33  COCCCn1[nH]c2c3c(ccc2c1=O)C(=O)c1ccccc1C3=O           no
34  O=C(Nc1ccc(Cc2ccncc2)cc1)c1ccc([N+](=O)[O-])o1          yes
35  Cc1ccccc1C(=O)N1CCN(c2ccc(NC(=O)c3ccc([N+](=O)[O-])o3)cc2)CC1          yes
36  Cn1cc([N+](=O)[O-])c(C(=O)Nc2sc3c(c2C#N)CCC3)n1          yes
37   COc1ccc(NC(=O)c2ccc([N+](=O)[O-])o2)cc1          yes
38   COC(=O)c1ccc2cc(OC)cc([N+](=O)[O-])c2n1           no
39  O=C(Nc1ccccc1N1CCN(C(=O)c2ccccc2)CC1)c1ccc([N+](=O)[O-])o1           no
40  COCCn1c(C)cc(C(=O)COc2cccnc2[N+](=O)[O-])c1C           no
41       O=C(NCc1ccco1)c1ccc([N+](=O)[O-])o1           no
